What melting point was measured for each of the following?

Retrieve melting point measured for O=C1NCN2c3ccccc3Sc3cccc1c32 and print it.
187 to 192 °C

Retrieve melting point measured for O=C1NC(c2ccccc2)n2c3ccccc3c(=O)c3cccc1c32 (stereo not shown) and print it.
288 to 292 °C

Retrieve melting point measured for O=C1NCN2c3ccc(S(=O)(=O)NCCN4CCCCC4)cc3Sc3cccc1c32 and print it.
170 to 172 °C

Retrieve melting point measured for O=C1NCN2c3ccc([N+](=O)[O-])cc3Sc3cccc1c32 and print it.
205 to 208 °C

Retrieve melting point measured for O=C1NCN2c3ccc(S(=O)(=O)NCCN4CCOCC4)cc3Sc3cccc1c32 and print it.
227 to 228 °C

Retrieve melting point measured for O=C1NCN2c3ccccc3Oc3cccc1c32 and print it.
> 300 °C

Retrieve melting point measured for O=C1NCn2c3ccccc3c(=O)c3cccc1c32 and print it.
250 to 255 °C
